Assay: physchem
Assay type: physicochemical
Conditions: pH 2.7, Solubility (mg/mL) at Ambient Temperature, 50% propylene glycol, pH 2.7
testReadout: solubility

Request: Find the measured solubility of "CCCCCCCCCCCCCCCCNC(=O)CN(CC(N)=O)C(=O)CCCCCNC(=O)[C@H](Cc1c[nH]c2ccccc12)NC(=O)[C@H](CCCNC(=N)N)NC(=O)[C@H](CSSC)NC(=O)[C@H](CCCNC(=N)N)NC(=O)CCNC(=O)[C@@H](NC(=O)[C@H](Cc1c[nH]cn1)NC(=O)[C@@H](NC(=O)CNCC(=O)O)[C@@H](C)O)C(c1ccccc1)c1ccccc1" and report it.
Response: < 20 mg/mL

Request: Fill in solubility for record "CCCCCCCCCCCCCCCCNC(=O)CN(CC(N)=O)C(=O)CCCCCNC(=O)[C@H](Cc1c[nH]c2ccccc12)NC(=O)[C@H](CCCNC(=N)N)NC(=O)[C@H](CSSC)NC(=O)[C@H](CCCNC(=N)N)NC(=O)[C@@H]1CCCN(C(=O)[C@@H](NC(=O)[C@H](Cc2c[nH]cn2)NC(=O)[C@@H](NC(=O)CNCC(=O)O)[C@@H](C)O)C(c2ccccc2)c2ccccc2)C1"
Response: > 100 mg/mL

Request: For the molecule "CCCCCCCCCCCCCCCCNC(=O)CN(CC(N)=O)C(=O)CCCCCNC(=O)[C@H](Cc1c[nH]c2ccccc12)NC(=O)[C@H](CCCNC(=N)N)NC(=O)[C@H](CSSC)NC(=O)[C@H](CCCNC(=N)N)NC(=O)C1CCN(C(=O)[C@@H](NC(=O)[C@H](Cc2c[nH]cn2)NC(=O)[C@@H](NC(=O)CNCC(=O)O)[C@@H](C)O)C(c2ccccc2)c2ccccc2)CC1" , give its reported solubility.
Response: 30 to 50 mg/mL

---

Would you kindly list solubility for each of these compounds?
Experiment: physchem
Assay type: physicochemical
Details: Solubility (mg/mL) at Ambient Temperature, Water
Procedure: Different solvent compositions with different properties that are commonly used as a basis for pharmaceutical compositions were added to known quantities of the indicated compound and mixed. If a clear solution was not obtained, additional solvent was added and the solution mixed. […] For example “50-100” would indicate that the compound was not soluble at 100 mg/mL but upon additional solvent to have a final concentration of 50 mg/mL, the compound was soluble.

Request: Retrieve solubility measured for "CCCCCCCCCCCCCCCCNC(=O)CN(CC(N)=O)C(=O)CCCCCNC(=O)[C@H](Cc1c[nH]c2ccccc12)NC(=O)[C@H](CCCNC(=N)N)NC(=O)[C@H](CSSC)NC(=O)[C@H](CCCNC(=N)N)NC(=O)[C@@H]1CCCN(C(=O)[C@@H](NC(=O)[C@H](Cc2c[nH]cn2)NC(=O)[C@@H](NC(=O)CNCC(=O)O)[C@@H](C)O)C(c2ccccc2)c2ccccc2)C1" and print it.
Response: 50 to 100 mg/mL

Request: Please supply the value of reported solubility for the item "CCCCCCCCCCCCCCCCNC(=O)CN(CC(N)=O)C(=O)CCCCCNC(=O)[C@H](Cc1c[nH]c2ccccc12)NC(=O)[C@H](CCCNC(=N)N)NC(=O)[C@H](CSSC)NC(=O)[C@H](CCCNC(=N)N)NC(=O)C[C@@H]1CCCN1C(=O)[C@@H](NC(=O)[C@H](Cc1c[nH]cn1)NC(=O)[C@@H](NC(=O)CN(CC(=O)O)C(=O)CNC(C)=O)[C@@H](C)O)C(c1ccccc1)c1ccccc1"
Response: 50 to 100 mg/mL

Request: Give the value of solubility reported for the following: CCCCCCCCCCCCCCCCNC(=O)CN(CC(N)=O)C(=O)CCCCCNC(=O)C(Cc1c[nH]c2ccccc12)NC(=O)C(CCCNC(=N)N)NC(=O)C(CSSC)NC(=O)C(CCCNC(=N)N)NC(=O)CC1CCCN1C(=O)C(NC(=O)C(Cc1c[nH]cn1)NC(=O)C(NC(=O)CNCC(=O)O)C(C)O)C(c1ccccc1)c1ccccc1 (stereo not drawn)
Response: 50 to 100 mg/mL

The values you see were collected from patent US9315545B2.
